Just for reference, patent US20250019427A1 is where these values come from.

Molecular target: T1, Human GDF15 Fc (human) (UniProt Q99988)
T1 sequence (chain, biotinylated (EZ-Link Sulfo-NHS-Biotinylation Kit) where printed as biotinylated): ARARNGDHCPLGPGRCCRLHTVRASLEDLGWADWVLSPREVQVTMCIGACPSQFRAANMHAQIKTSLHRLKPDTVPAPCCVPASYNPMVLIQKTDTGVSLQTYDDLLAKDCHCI
Experiment: SPR Biacore, Fab monovalent
Known koff of a selection of binders
Form entry: value (s⁻¹) — number only.

Input line: Item under review: Clone E Fab (Fab, V domains shown) VH: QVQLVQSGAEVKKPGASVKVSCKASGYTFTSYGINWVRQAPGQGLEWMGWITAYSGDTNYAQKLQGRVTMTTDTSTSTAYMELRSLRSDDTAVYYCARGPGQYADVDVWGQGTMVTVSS VL: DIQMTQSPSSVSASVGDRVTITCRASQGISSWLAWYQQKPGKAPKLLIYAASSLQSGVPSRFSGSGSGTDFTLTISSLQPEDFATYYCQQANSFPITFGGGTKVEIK . Reported koff?
Output line: 8.71e-05

Input line: Which koff is listed for Clone I Fab (Fab, V domains shown) VH: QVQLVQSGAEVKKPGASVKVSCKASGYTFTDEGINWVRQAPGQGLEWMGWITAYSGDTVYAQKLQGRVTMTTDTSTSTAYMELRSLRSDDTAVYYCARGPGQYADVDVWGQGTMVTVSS VL: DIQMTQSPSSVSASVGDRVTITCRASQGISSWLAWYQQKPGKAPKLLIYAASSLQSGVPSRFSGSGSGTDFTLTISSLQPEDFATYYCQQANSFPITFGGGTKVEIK ?
Output line: 0.000259

Input line: Requested field: koff. Item: Clone J Fab (Fab, V domains shown) VH: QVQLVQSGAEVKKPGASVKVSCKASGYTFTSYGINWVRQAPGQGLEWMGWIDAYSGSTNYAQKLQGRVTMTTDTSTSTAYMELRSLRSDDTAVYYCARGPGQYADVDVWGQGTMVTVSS VL: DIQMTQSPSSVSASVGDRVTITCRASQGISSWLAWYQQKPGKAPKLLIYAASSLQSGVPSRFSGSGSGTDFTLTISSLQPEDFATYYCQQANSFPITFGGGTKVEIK
Output line: 0.000404

Input line: For the binder shown here, Clone O Fab (Fab, V domains shown) VH: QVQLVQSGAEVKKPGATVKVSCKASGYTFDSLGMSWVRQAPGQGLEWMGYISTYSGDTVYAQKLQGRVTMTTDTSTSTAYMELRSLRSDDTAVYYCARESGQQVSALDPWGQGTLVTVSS VL: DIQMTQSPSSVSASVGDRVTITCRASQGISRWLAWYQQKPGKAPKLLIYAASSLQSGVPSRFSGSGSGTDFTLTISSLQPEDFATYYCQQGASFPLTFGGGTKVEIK , give the reported koff.
Output line: 7.11e-05
